Where do the numbers come from? From PubChem BioAssay (NCATS).

# assay_text: BET inhibitor-based combinations targeting novel dependencies in MECOM-rearranged (r) AML: MV-4-11 cell line (AID 2202233); further: potency means the concentration at half of the fitted maximal effect; nearly all actives have a fitted effect of over 45% in size
# study_conditions: MV-4-11 AML viability, CellTiter-Glo luminescence, 48 h; series mostly up to 46 µM
Records with an inconclusive call do not appear. Activity calls are given as the source filed them. The call rests on the fitted dose curve; in most records, active means well fitted inhibition curve with a large enough effect; inconclusive means small, poorly fitted or top-dose-only effect; inactive means no such curve, though single readings can be large or run the other way.
Entries and their Potency values follow.
result_type: Potency

smiles_repr	result_type	result
C[C@H]1COC2=C1C(=O)C(=O)c1c2ccc2c1CCCC2(C)C	Potency	13200 nM (active)
Cc1nn(C)c(COc2ccc(N3CCN(S(=O)(=O)N(C)C)CC3)cc2)c1-c1cccc2c(CCCOc3cccc4ccccc34)c(C(=O)O)n(CCN3CCOCC3)c12	Potency	6610 nM (active)
CCNC(=O)c1cc2c(-c3cc(OCCN4CCCC4)c(Cl)cc3Cl)nc(N)nc2s1	Potency	363 nM (active)
COc1cc(CCc2cc(NC(=O)c3ccc(N4C[C@@H](C)N[C@@H](C)C4)cc3)n[nH]2)cc(OC)c1	Potency	2090 nM (active)
CC[C@]12C=CCN3CC[C@@]4(c5cc([C@@]6(C(=O)OC)C[C@H]7C[C@@H](C(C)(F)F)CN(Cc8c6[nH]c6ccccc86)C7)c(OC)cc5N(C)[C@H]4[C@@](O)(C(=O)OC)[C@@H]1OC(C)=O)[C@@H]32	Potency	197 nM (active)
C[C@H](Cc1ccc(O)c(O)c1)[C@@H](C)Cc1ccc(O)c(O)c1	Potency	2950 nM (active)
CNCc1ccc(-c2[nH]c3cc(F)cc4c3c2CCNC4=O)cc1	Potency	11800 nM (active)
COc1ccc(N(C)c2nc(C)nc3ccccc23)cc1	Potency	10.5 nM (active)
